PanDDA run, TFA/DMSO background map: 1-BDC by entry:
- tgt: SARS-CoV-2 NSP3 macrodomain (Mac1), P43 crystal form (Severe acute respiratory syndrome coronavirus 2, UniProt P0DTD1)
- Type: binding
- measurement_context: crystal soak 10 mM; TFA/DMSO background map
measured_quantity: PanDDA run, TFA/DMSO background map: 1-BDC

>>> observed_measurement("OCC(Cc1ccc(I)cc1)Nc1ncnc2[nH]ccc12 (stereo not drawn)")
0.19
>>> observed_measurement("OCC(Nc1ncnc2[nH]ccc12)C1CCOC1 (stereo not drawn)")
0.11
>>> observed_measurement("OC1CCN(c2ncnc3[nH]ccc23)C1 (stereo not drawn)")
0.12
>>> observed_measurement("OC(c1ccccc1)C1CCCN1c1ncnc2[nH]ccc12 (stereo not drawn)")
0.16
>>> observed_measurement("OCC(CN1CCCCC1)Nc1ncnc2[nH]ccc12 (stereo not drawn)")
0.18
>>> observed_measurement("OCC(Nc1ncnc2[nH]ccc12)C1CCC1 (stereo not drawn)")
0.1

====

- tgt: SARS-CoV-2 NSP3 macrodomain (Mac1) (Severe acute respiratory syndrome coronavirus 2, UniProt P0DTD1)
- measurement_protocol: biochemical
- Format: binding
- measurement_context: Single dose, concentration 200 μM; read-out: SARS CoV-2 macrodomain HTRF assay: Average % competition
Label MET when inhibition at 200 µM is at or above 40%; otherwise label NOT MET.

>>> category_label("CC(C)C1CCCN1c1ncnc2[nH]ccc12 (centres unmarked)")
"NOT MET"
>>> category_label("CC(C)(C)C1CCC(CO)N(c2ncnc3[nH]ccc23)C1 (centres unmarked)")
"NOT MET"
>>> category_label("O=C(O)C(F)(F)F.OC[C@H]1CC2(CN1c1ncnc3[nH]ccc13)OCCO2")
"NOT MET"
>>> category_label("OC(c1ccccc1)C1CCCN1c1ncnc2[nH]ccc12 (centres unmarked)")
"NOT MET"
>>> category_label("CC(C)(O)[C@@H]1CCCN1c1ncnc2[nH]ccc12")
"MET"
>>> category_label("OCC(O)C1CCCN1c1ncnc2[nH]ccc12 (centres unmarked)")
"MET"
>>> category_label("Cc1nn(C)cc1C1CCC(CO)N1c1ncnc2[nH]ccc12 (centres unmarked)")
"MET"
>>> category_label("O[C@H]1CNCC[C@@H]1Nc1ncnc2[nH]ccc12")
"NOT MET"
>>> category_label("OC[C@@H]1C[C@H](F)CN1c1ncnc2[nH]ccc12")
"MET"
>>> category_label("OCC1CC2(CCCCC2)CN1c1ncnc2[nH]ccc12 (centres unmarked)")
"MET"
>>> category_label("OC1CCN(c2ncnc3[nH]ccc23)C1 (centres unmarked)")
"NOT MET"
>>> category_label("OCC1COCCN1c1ncnc2[nH]ccc12 (centres unmarked)")
"MET"
>>> category_label("O=C(O)C(F)(F)F.OCC1C2C=CC(C2)N1c1ncnc2[nH]ccc12 (centres unmarked)")
"MET"

====

- tgt: SARS-CoV-2 NSP3 macrodomain (Mac1) (Severe acute respiratory syndrome coronavirus 2)
- measurement_protocol: biochemical
- Type: binding
- measurement_context: Single dose, concentration 200 μM; read-out: Average % competition
Label True when inhibition at 200 µM is at or above 60%; otherwise label False.

>>> category_label("OCC(CC1CC1)Nc1ncnc2[nH]ccc12 (stereo not shown) [AVI-3662]")
"False"
>>> category_label("Cn1cc(CC(CO)Nc2ncnc3[nH]ccc23)cn1 (stereo not shown) [AVI-3657]")
"False"
>>> category_label("OCC(Cc1nccs1)Nc1ncnc2[nH]ccc12 (stereo not shown) [AVI-3673]")
"False"
>>> category_label("CCC1(O)CCN(c2ncnc3[nH]ccc23)C1 (stereo not shown) [AVI-612]")
"False"
>>> category_label("C[C@@H](O)[C@H](CO)Nc1ncnc2[nH]ccc12.O=C(O)C(F)(F)F [AVI-3730]")
"True"
>>> category_label("OCC(CC(O)c1ccccc1)Nc1ncnc2[nH]ccc12 (stereo not shown) [AVI-3642]")
"False"
>>> category_label("O[C@@H]1CN(c2ncnc3[nH]ccc23)C[C@H]1F [AVI-616]")
"False"
>>> category_label("CC(C)(C)CC(CO)Nc1ncnc2[nH]ccc12 (stereo not shown) [AVI-3648]")
"False"
>>> category_label("OCC(CC(F)(F)F)Nc1ncnc2[nH]ccc12 (stereo not shown) [AVI-3637]")
"False"
>>> category_label("CC(C)(C)C(O)CC(CO)Nc1ncnc2[nH]ccc12.O=C(O)C(F)(F)F (stereo not shown) [AVI-3714]")
"False"
>>> category_label("OCC(CC1CCCCC1)Nc1ncnc2[nH]ccc12 (stereo not shown) [AVI-3690]")
"True"
>>> category_label("Cc1ccc(CC(CO)Nc2ncnc3[nH]ccc23)cc1C (stereo not shown) [AVI-3684]")
"False"
>>> category_label("Cc1ccc(CC(CO)Nc2ncnc3[nH]ccc23)cc1 (stereo not shown) [AVI-3683]")
"False"
>>> category_label("OCC(Cc1cccs1)Nc1ncnc2[nH]ccc12 (stereo not shown) [AVI-3711]")
"True"
>>> category_label("O=C(O)C(F)(F)F.OCC(Nc1ncnc2[nH]ccc12)C(O)C1CCCCC1 (stereo not shown) [AVI-3687]")
"False"
>>> category_label("OCC(CC1CCCC1)Nc1ncnc2[nH]ccc12 (stereo not shown) [AVI-3691]")
"False"
>>> category_label("CCC(CO)Nc1ncnc2[nH]ccc12 (stereo not shown) [AVI-3643]")
"True"
>>> category_label("O=C(O)C(F)(F)F.OCC(CC1CCOCC1)Nc1ncnc2[nH]ccc12 (stereo not shown) [AVI-3676]")
"False"
>>> category_label("OCC(Nc1ncnc2[nH]ccc12)c1ccccc1 (stereo not shown) [AVI-3715]")
"False"
>>> category_label("O[C@@]1(Cn2ccnn2)CCCN(c2ncnc3[nH]ccc23)C1 [AVI-608]")
"False"
>>> category_label("OCC(Cc1ccccn1)Nc1ncnc2[nH]ccc12 (stereo not shown) [AVI-3696]")
"False"
>>> category_label("CCC(Nc1ncnc2[nH]ccc12)C(C)O (stereo not shown) [AVI-3635]")
"False"
>>> category_label("OCC1(Nc2ncnc3[nH]ccc23)COC1 [AVI-5649]")
"False"
>>> category_label("CN(C)CC(CO)Nc1ncnc2[nH]ccc12 (stereo not shown) [AVI-3671]")
"False"
>>> category_label("O=C(O)C(F)(F)F.OCC(Cc1cccc(F)c1)Nc1ncnc2[nH]ccc12 (stereo not shown) [AVI-3706]")
"True"
>>> category_label("OCC(Cc1ccoc1)Nc1ncnc2[nH]ccc12 (stereo not shown) [AVI-3705]")
"True"
>>> category_label("NC(=O)C1(O)CCN(c2ncnc3[nH]ccc23)C1 (stereo not shown) [AVI-611]")
"False"
>>> category_label("CC(O)C(C)Nc1ncnc2[nH]ccc12 (stereo not shown) [AVI-5158]")
"False"
>>> category_label("O=[N+]([O-])c1ccc(C(O)C(CO)Nc2ncnc3[nH]ccc23)cc1 (stereo not shown) [AVI-3672]")
"False"
>>> category_label("OC1CCCN(c2ncnc3[nH]ccc23)C1 (stereo not shown) [AVI-3646]")
"False"
>>> category_label("OCC(CN1CCCCC1)Nc1ncnc2[nH]ccc12 (stereo not shown) [AVI-3677]")
"False"
>>> category_label("OCC(Nc1ncnc2[nH]ccc12)C1CCc2ccccc21 (stereo not shown) [AVI-3693]")
"True"
>>> category_label("OCC(Cc1c[nH]c2ccccc12)Nc1ncnc2[nH]ccc12 (stereo not shown) [AVI-3650]")
"True"
>>> category_label("O[C@@H]1CNCC[C@H]1Nc1ncnc2[nH]ccc12 [AVI-613]")
"False"
>>> category_label("OCC(Cc1ccc(I)cc1)Nc1ncnc2[nH]ccc12 (stereo not shown) [AVI-3686]")
"False"
>>> category_label("O=C(O)C(F)(F)F.OCC1(Nc2ncnc3[nH]ccc23)CC1 [AVI-3688]")
"True"
>>> category_label("OCC(Nc1ncnc2[nH]ccc12)C1CCC1 (stereo not shown) [AVI-3638]")
"True"
>>> category_label("CN(C)C[C@@]1(O)CCCN(c2ncnc3[nH]ccc23)C1 [AVI-614]")
"False"
>>> category_label("C#CCC(CO)Nc1ncnc2[nH]ccc12 (stereo not shown) [AVI-3644]")
"False"
>>> category_label("OCC(Nc1ncnc2[nH]ccc12)c1ccco1 (stereo not shown) [AVI-3659]")
"False"
>>> category_label("OCC(CC1CCC1)Nc1ncnc2[nH]ccc12 (stereo not shown) [AVI-3641]")
"False"
>>> category_label("OCC(CC1CCOC1)Nc1ncnc2[nH]ccc12 (stereo not shown) [AVI-3665]")
"False"
>>> category_label("CCC(Nc1ncnc2[nH]ccc12)C(C)(C)O (stereo not shown) [AVI-3667]")
"False"

====

- tgt: SARS-CoV-2 NSP3 macrodomain (Mac1) (Severe acute respiratory syndrome coronavirus 2, UniProt P0DTD1)
- measurement_protocol: biochemical
- Assay type: binding
- measurement_context: preliminary screen, compound at 200 μM, mean of 3-4 technical replicates; read-out: % competition in HTRF assay
measured_quantity: inhibition at 200 µM (%)

>>> observed_measurement("Cn1cc(CC(CO)Nc2ncnc3[nH]ccc23)cn1 (stereo not shown) [AVI-3657]")
24
>>> observed_measurement("C#CCC(CO)Nc1ncnc2[nH]ccc12 (stereo not shown) [AVI-3644]")
43
>>> observed_measurement("OCC(CC1CCC1)Nc1ncnc2[nH]ccc12 (stereo not shown) [AVI-3641]")
32
>>> observed_measurement("CC(C)(C)CC(CO)Nc1ncnc2[nH]ccc12 (stereo not shown) [AVI-3648]")
27
>>> observed_measurement("CC(C)CCC(CO)Nc1ncnc2[nH]ccc12.O=C(O)C(F)(F)F (stereo not shown) [AVI-3668]")
38
>>> observed_measurement("O=C(O)C(F)(F)F.OCC(Nc1ncnc2[nH]ccc12)C1CCCO1 (stereo not shown) [AVI-3645]")
54
>>> observed_measurement("CC(O)C(C)Nc1ncnc2[nH]ccc12 (stereo not shown) [AVI-5158]")
32
>>> observed_measurement("CC(C)(C)[C@@H]1CCN(c2ncnc3[nH]ccc23)[C@H](CO)C1 [AVI-3722]")
22
>>> observed_measurement("O=[N+]([O-])c1ccc(C(O)C(CO)Nc2ncnc3[nH]ccc23)cc1 (stereo not shown) [AVI-3672]")
43
>>> observed_measurement("OCC1CCCN1c1ncnc2[nH]ccc12 (stereo not shown) [AVI-3685]")
48
>>> observed_measurement("CNc1ccc(NS(=O)(=O)c2cc3cccc(C)c3s2)cn1 [AVI-345]")
18
>>> observed_measurement("C[C@@H](O)[C@H](CO)Nc1ncnc2[nH]ccc12.O=C(O)C(F)(F)F [AVI-3730]")
63
>>> observed_measurement("OCC1CC2(CCCCC2)CN1c1ncnc2[nH]ccc12 (stereo not shown) [AVI-3727]")
67
>>> observed_measurement("OCC(CC1OCCO1)Nc1ncnc2[nH]ccc12 (stereo not shown) [AVI-3658]")
11
>>> observed_measurement("Cc1cc2c(=O)n(CCN3C(=O)c4ccccc4S3(=O)=O)nnc2s1 [AVI-341]")
11
>>> observed_measurement("OC1CCCN(c2ncnc3[nH]ccc23)C1 (stereo not shown) [AVI-3646]")
20
>>> observed_measurement("CC(C)C1CCCN1c1ncnc2[nH]ccc12 (stereo not shown) [AVI-5216]")
35
>>> observed_measurement("OCC1COCCN1c1ncnc2[nH]ccc12 (stereo not shown) [AVI-3717]")
62
>>> observed_measurement("OC(c1ccccc1)C1CCCN1c1ncnc2[nH]ccc12 (stereo not shown) [AVI-3652]")
35
>>> observed_measurement("CC1(C)CCC(CO)N(c2ncnc3[nH]ccc23)C1 (stereo not shown) [AVI-3726]")
76
>>> observed_measurement("OCC(Nc1ncnc2[nH]ccc12)c1ccco1 (stereo not shown) [AVI-3659]")
55
>>> observed_measurement("OCC(Nc1ncnc2[nH]ccc12)C1CCc2ccccc21 (stereo not shown) [AVI-3693]")
78
>>> observed_measurement("CCC(CO)Nc1ncnc2[nH]ccc12 (stereo not shown) [AVI-3643]")
63
>>> observed_measurement("CN1CCN(c2ncnc3[nH]ccc23)C(CO)C1 (stereo not shown) [AVI-3721]")
11
>>> observed_measurement("O=C(O)C(F)(F)F.OCC(Cc1cccc(F)c1)Nc1ncnc2[nH]ccc12 (stereo not shown) [AVI-3706]")
77
>>> observed_measurement("O=C(O)C(F)(F)F.OC[C@H]1CC2(CN1c1ncnc3[nH]ccc13)OCCO2 [AVI-3702]")
17
>>> observed_measurement("OCC(Cc1cccs1)Nc1ncnc2[nH]ccc12 (stereo not shown) [AVI-3711]")
63
>>> observed_measurement("OCC(CC1CC1)Nc1ncnc2[nH]ccc12 (stereo not shown) [AVI-3662]")
44
>>> observed_measurement("NC(=O)C1(O)CCN(c2ncnc3[nH]ccc23)C1 (stereo not shown) [AVI-611]")
30
>>> observed_measurement("OCC(Nc1ncnc2[nH]ccc12)C1CCC1 (stereo not shown) [AVI-3638]")
77
>>> observed_measurement("OCC1CC2(CCC2)CN1c1ncnc2[nH]ccc12 (stereo not shown) [AVI-3728]")
79
>>> observed_measurement("OCC(COCc1ccccc1)Nc1ncnc2[nH]ccc12 (stereo not shown) [AVI-3709]")
29
>>> observed_measurement("OC1CCN(c2ncnc3[nH]ccc23)C1 (stereo not shown) [AVI-3661]")
11
>>> observed_measurement("O=C(O)C(F)(F)F.OC[C@@H](CCc1ccccc1)Nc1ncnc2[nH]ccc12 [AVI-3654]")
27
>>> observed_measurement("OCC(CC1CCCCC1)Nc1ncnc2[nH]ccc12 (stereo not shown) [AVI-3690]")
68
>>> observed_measurement("OCC(Cc1nccs1)Nc1ncnc2[nH]ccc12 (stereo not shown) [AVI-3673]")
38

The reported measurements were obtained from paper doi:10.1101/2024.08.25.609621.
